test system: K. pneumoniae PCI602; test: Antimicrobial activity (minimum inhibitory concentration); format: cell-based; conditions: Klebsiella pneumoniae
ENDPOINT NAME: MIC (µg/mL)

Example compounds with recorded MIC:
In [3]: df
Out[3]:
                                   compound  quantitative_result
0  C[C@@H](O)[C@H]1C(=O)N2C(C(=O)O)=C(S[C@@H]3CN[C@H](c4csc5c[n+](C)cn45)C3)[C@H](C)[C@H]12                  0.1
1  C[C@@H](O)[C@H]1C(=O)N2C(C(=O)O)=C(S[C@@H]3CN[C@H](/C=C\c4csc5c[n+](C)cn45)C3)[C@H](C)[C@H]12                 0.05
2  C[C@@H](O)[C@H]1C(=O)N2C(C(=O)O)=C(S[C@@H]3CN[C@H](C(O)c4csc5cncn45)C3)[C@H](C)[C@H]12 (single isomer, unassigned)                  0.1
3  C[C@@H](O)[C@H]1C(=O)N2C(C(=O)O)=C(S[C@@H]3CN[C@H](/C=C\c4csc5c[n+](CC(N)=O)cn45)C3)[C@H](C)[C@H]12                 0.05
4  Cc1n2cc(C[C@@H]3C[C@H](SC4=C(C(=O)O)N5C(=O)[C@H]([C@@H](C)O)[C@H]5[C@H]4C)CN3)sc2c[n+]1CCC(N)=O                  0.1
5  C[C@@H](O)[C@H]1C(=O)N2C(C(=O)[O-])=C(S[C@@H]3CN[C@H](/C=C\c4csc5c[n+](CCC(N)=O)cn45)C3)[C@H](C)[C@H]12                  0.1
6  C[C@@H](O)[C@H]1C(=O)N2C(C(=O)O)=C(SCCN=CN)C[C@H]12 [Compound A, Imipenem, reference compound]                 0.39
7  C[C@@H](O)[C@H]1C(=O)N2C(C(=O)O)=C(S[C@@H]3CN[C@H](C(O)c4cn5c[n+](C)cc5s4)C3)[C@H](C)[C@H]12 (single isomer, unassigned)                  0.1
8  C[C@@H](O)[C@H]1C(=O)N2C(C(=O)O)=C(S[C@@H]3CN[C@H](C(=O)NCc4n5ccsc5c[n+]4C)C3)[C@H](C)[C@H]12                  0.1

(1) C[C@@H](O)[C@H]1C(=O)N2C(C(=O)O)=C(S[C@@H]3CN[C@H](/C=C/c4cn5c[n+](CC(N)=O)cc5s4)C3)[C@H](C)[C@H]12 [Ex. 53A]
(2) C[C@@H](O)[C@H]1C(=O)N2C(C(=O)O)=C(S[C@@H]3CN[C@H](/C=C\c4cn5c[n+](CC(N)=O)cc5s4)C3)[C@H](C)[C@H]12 [Ex. 53B]
(3) C[C@@H](O)[C@H]1C(=O)N2C(C(=O)O)=C(S[C@@H]3CN[C@H](/C=C\c4csc5cncn45)C3)[C@H](C)[C@H]12
Exercise: // sort entries: MIC, high to low Would you mind listing the labels in the order asked for?
Solution: 3, 1, 2
(3: 0.2 µg/mL, 1: 0.1 µg/mL, 2: 0.05 µg/mL)

====

test: Stability against DHP-I (pig); type: in vitro ADME; details: kidney dhp-i, 100 μg (potency)/ml, 37° C., pH 7.0, read-out: residue (%) of the carbapenem derivative
ENDPOINT NAME: remaining at 3 h (%)

                                   compound     endpoint_name  quantitative_result
0  C[C@@H](O)[C@H]1C(=O)N2C(C(=O)O)=C(S[C@@H]3CN[C@H](Cc4cn5c[n+](CC(N)=O)cc5s4)C3)[C@H](C)[C@H]12  remaining at 3 h                   95
1  C[C@@H](O)[C@H]1C(=O)N2C(C(=O)O)=C(S[C@@H]3CN[C@H](C(=O)N(C)C)C3)[C@H](C)[C@H]12  remaining at 3 h                   71
2  C[C@@H](O)[C@H]1C(=O)N2C(C(=O)O)=C(SCCN=CN)C[C@H]12 [Compound A, Imipenem, reference compound]  remaining at 3 h                   24

(A) C[C@@H](O)[C@H]1C(=O)N2C(C(=O)O)=C(S[C@@H]3CN[C@H](Cc4csc5cncn45)C3)[C@H](C)[C@H]12
(B) CC(=N)N1CC[C@H](SC2=C(C(=O)O)N3C(=O)[C@H]([C@@H](C)O)[C@H]3C2)C1 [Compound B, Panipenem, reference compound]
Exercise: Kindly identify the item with the lower remaining at 3 h figure among these two: A and B Pick one; state its label.
Solution: B
(B: 19%, A: 100%)

====

For E. coli GN206, measured MIC is reported for the entries below.
ENDPOINT NAME: MIC (µg/mL)

Example compounds with recorded MIC:
COMPOUND	MIC / µg/mL
Cc1n2cc(C[C@@H]3C[C@H](SC4=C(C(=O)O)N5C(=O)[C@H]([C@@H](C)O)[C@H]5[C@H]4C)CN3)sc2c[n+]1CCC(N)=O [Ex. 67]	0.1
C[C@@H](O)[C@H]1C(=O)N2C(C(=O)O)=C(SCCN=CN)C[C@H]12 [Compound A, Imipenem, reference compound]	0.1
C[C@@H](O)[C@H]1C(=O)N2C(C(=O)O)=C(S[C@@H]3CN[C@H](/C=C\c4csc5c[n+](CC(N)=O)cn45)C3)[C@H](C)[C@H]12 [Ex. 54]	0.05

(a) C[C@@H](O)[C@H]1C(=O)N2C(C(=O)O)=C(S[C@@H]3CN[C@H](C(O)c4cn5c[n+](C)cc5s4)C3)[C@H](C)[C@H]12 (single isomer, unassigned) [Ex. 18]
(b) C[C@@H](O)[C@H]1C(=O)N2C(C(=O)O)=C(S[C@@H]3CN[C@H](/C=C/c4cn5c[n+](CC(N)=O)cc5s4)C3)[C@H](C)[C@H]12 [Ex. 53A]
Exercise: Of a and b , whose reported MIC is the larger number? Pick one; state its label.
Solution: b
(b: 0.1 µg/mL, a: 0.05 µg/mL)

====

tested on: E. cloacae G-0008
ENDPOINT NAME: MIC (µg/mL)

>>> print(df.to_string())
                                   compound  quantitative_result
0  C[C@@H](O)[C@H]1C(=O)N2C(C(=O)[O-])=C(S[C@@H]3CN[C@H](/C=C\c4csc5c[n+](CCC(N)=O)cn45)C3)[C@H](C)[C@H]12                 0.05
1  C[C@@H](O)[C@H]1C(=O)N2C(C(=O)O)=C(S[C@@H]3CN[C@H](/C=C\c4cn5c[n+](CC(N)=O)cc5s4)C3)[C@H](C)[C@H]12 [Ex. 53B]                 0.05

====

Tested on: Ps. aeruginosa GN10362
Assay: Antimicrobial activity (minimum inhibitory concentration)
Assay type: cell-based
Details: Pseudomonas aeruginosa; Ps. aeruginosa GN10362; read-out: MIC
Description: For representative compounds among the novel carbapenem derivatives of the present invention, the minimum inhibitory concentration (MIC, μg/ml) against various pathogenic bacteria was measured in accordance with a method described in CHEMOTHERAPY, Vol. 16, No. 1, 99 (1968).
ENDPOINT NAME: MIC (µg/mL)

In [3]: df
Out[3]:
                                 smiles_str  quantitative_result
0  C[C@@H](O)[C@H]1C(=O)N2C(C(=O)O)=C(S[C@@H]3CN[C@H](c4csc5c[n+](C)cn45)C3)[C@H](C)[C@H]12                 0.78
1  C[C@@H](O)[C@H]1C(=O)N2C(C(=O)O)=C(S[C@@H]3CN[C@H](Cc4cn5c[n+](CC(N)=O)cc5s4)C3)[C@H](C)[C@H]12                 0.78
2  C[C@@H](O)[C@H]1C(=O)N2C(C(=O)O)=C(S[C@@H]3CN[C@H](/C=C\c4cn5c[n+](CCC(N)=O)cc5s4)C3)[C@H](C)[C@H]12                 0.78

====

system: S. aureus M126; experiment: Antimicrobial activity (minimum inhibitory concentration); assay type: cell-based; conditions: Staphylococcus aureus; S. aureus M126, highly meticillin-resistant strain
ENDPOINT NAME: MIC (µg/mL)

Example compounds with recorded MIC:
>>> df
                                   compound          target  endpoint_name  quantitative_result
0  C[C@@H](O)[C@H]1C(=O)N2C(C(=O)O)=C(S[C@@H]3CN[C@H](C(=O)NCc4n5ccsc5c[n+]4C)C3)[C@H](C)[C@H]12 [Ex. 2]  S. aureus M126            MIC                 6.25
1  CC(=N)N1CC[C@H](SC2=C(C(=O)O)N3C(=O)[C@H]([C@@H](C)O)[C@H]3C2)C1 [Compound B, Panipenem, reference compound]  S. aureus M126            MIC                   25

(I) Cc1n2cc(C[C@@H]3C[C@H](SC4=C(C(=O)O)N5C(=O)[C@H]([C@@H](C)O)[C@H]5[C@H]4C)CN3)sc2c[n+]1CCC(N)=O [Ex. 67]
(II) C[C@@H](O)[C@H]1C(=O)N2C(C(=O)O)=C(S[C@@H]3CN[C@H](Cc4cn5c[n+](CC(N)=O)cc5s4)C3)[C@H](C)[C@H]12 [Ex. 26]
Exercise: Kindly identify the item with the lower MIC figure among these two: I and II Pick one; state its label.
Solution: II
(II: 6.25 µg/mL, I: 12.5 µg/mL)

Provenance of the data: patent US6180622A
